src = ChEMBL document CHEMBL1149072

Record form. Attribute: EC50. Fill in for each entry.
- Test system: SK-MEL-2
- TEST_DETAILS: Cytotoxicity against human SK-MEL-2 cells
- Assay type: functional
- CONDITION_PARAMETERS: read-out: ED50 (the source's name)
Give your result in µg/mL as a bare value.

Value wanted: EC50 (SK-MEL-2) of entry C[C@H]1CC=C2C(CO)(CO)CCC[C@]2(C)C1CC[C@@H](CCO)COC(=O)/C=C/c1ccc(O)cc1 (stereo partly specified) 11.2

Value wanted: EC50 (SK-MEL-2) of entry C=C1CC[C@@H]2[C@H]([C@H]3[C@H]1CC[C@]3(C)O)C2(C)C 6.3

Value wanted: EC50 (SK-MEL-2) of entry O=c1cc(-c2ccc(O)cc2)oc2cc(O)cc(O)c12 13.6

Value wanted: EC50 (SK-MEL-2) of entry COc1c(O)cc2oc(-c3ccc(O)cc3)cc(=O)c2c1O 11.5
